Reference source for all entries: patent US6737383B1

System: cocklebur
Assay: Test B pre/postemergence cocklebur
Format: in vivo, Xanthium strumarium
Details: Preemergence, Rate 62 g/ha; scale 0 to 10 (0 no effect, 10 complete control)
Procedure: […] At the same time, these crop and weed species were also treated with postemergence applications of test chemicals formulated in the same manner. […] Treated plants and controls were maintained in a greenhouse for twelve to sixteen days, after which all species were compared to controls and visually evaluated. […]
Each entry below lists one item and its recorded Cocklebur plant response rating value.
Number only, no unit.

Consider the following illustrative entries.
CCOC(Cn1c(=O)on(C(=O)N(c2ccc(F)cc2F)C(C)C)c1=O)OCC = 0
CCCCn1c(=O)on(C(=O)N(c2ccccc2)C(C)C)c1=O = 0
COc1ccccc1Cn1c(=O)on(C(=O)N(c2ccc(F)cc2)C(C)C)c1=O = 0

For CCOC(=O)CC(C(=O)OCC)n1c(=O)on(C(=O)N(c2ccc(F)cc2)C(C)C)c1=O (stereo not drawn) , write its Cocklebur plant response rating. 0

For CN(C(=O)n1oc(=O)n(Cc2ccccc2)c1=O)c1ccccc1 , write its Cocklebur plant response rating. 0

For CC(C)N(C(=O)n1oc(=O)n(C(C)c2ccccc2)c1=O)c1ccc(Cl)cc1 (stereo not drawn) , write its Cocklebur plant response rating. 0

For COCCOCn1c(=O)on(C(=O)N(c2ccccc2)C(C)C)c1=O , write its Cocklebur plant response rating. 0

For COCn1c(=O)on(C(=O)N(c2ccccc2)C(C)C)c1=O , write its Cocklebur plant response rating. 0

For Cc1cccc(C)c1-n1c(=O)on(C(=O)N(Cc2ccccc2)C(C)C)c1=O , write its Cocklebur plant response rating. 0

* * *

Tested on: velvetleaf
Assay: Test B pre/postemergence velvetleaf
Type: in vivo, Abutilon theophrasti
Conditions: Preemergence, Rate 250 g/ha; scale of 0 to 10 where 0 is no effect and 10 is complete control
ATTRIBUTE MEASURED: Velvetleaf plant response rating

COCC(C)N(C(=O)n1oc(=O)n(-c2ccccc2C)c1=O)c1ccc(F)cc1 (stereo not shown) [Compound 324] = 0
CCOC(=O)C(C)N(C(=O)n1oc(=O)n(C(C)C)c1=O)c1ccc(F)cc1 (stereo not shown) [Compound 302] = 0
CC(C)N(C(=O)n1oc(=O)n(C2CCCCCC2)c1=O)c1ccc(F)cc1 [Compound 340] = 0

For CC(C)N(C(=O)n1oc(=O)n(CCc2ccccc2)c1=O)c1ccc(F)cc1 [Compound 250] , write its Velvetleaf plant response rating. 0

* * *

Each entry below lists one item and its recorded Morningglory plant response rating value.
Tested on: morningglory
Experiment: Test B pre/postemergence morningglory
Format: in vivo, Ipomoea hederacea
Details: Postemergence, Rate 125 g/ha; scale of 0 to 10 where 0 is no effect and 10 is complete control
Method: […] At the same time, these crop and weed species were also treated with postemergence applications of test chemicals formulated in the same manner. […] Treated plants and controls were maintained in a greenhouse for twelve to sixteen days, after which all species were compared to controls and visually evaluated. […]
Number only, no unit.

CC(C)N(C(=O)n1oc(=O)n(CC2=NOCCO2)c1=O)c1ccc(F)cc1 [Compound 765] = 6
CC(C)N(C(=O)n1oc(=O)n(CCN(C)C(=O)c2ccccc2)c1=O)c1ccccc1 [Compound 761] = 6
COc1ccccc1Cn1c(=O)on(C(=O)N(c2ccc(F)cc2)C(C)C)c1=O [Compound 143] = 6
C#CCCn1c(=O)on(C(=O)N(c2ccc(F)cc2)C(C)C)c1=O [Compound 767] = 5

Please examine the following record next.
Give reported Morningglory plant response rating for CC(C)N(C(=O)n1oc(=O)n(CF)c1=O)c1ccc(F)cc1 [Compound 709] (morningglory) 0
